From: patent US20240317710A1

test details: Solubility determination in deionized water
Type: physicochemical
test conditions: visual observation
Counter-ions that a name gives are not always drawn.
readout label: Dissolution result

| molecule | observed |
| --- | --- |
| Cc1nc(NC(=O)N2CCC(C)(C)C2=O)ccc1Oc1ccnc(-c2cnn(C)c2)c1 [Phosphate crystalline form I] | Clear solution |
| Cc1nc(NC(=O)N2CCC(C)(C)C2=O)ccc1Oc1ccnc(-c2cnn(C)c2)c1 [Methanesulfonate crystalline form II] | Clear solution |
| Cc1nc(NC(=O)N2CCC(C)(C)C2=O)ccc1Oc1ccnc(-c2cnn(C)c2)c1 [Hydrochloride crystalline form I] | Clear solution |
| Cc1nc(NC(=O)N2CCC(C)(C)C2=O)ccc1Oc1ccnc(-c2cnn(C)c2)c1 [Sulfate crystalline form I] | Clear solution |
| Cc1nc(NC(=O)N2CCC(C)(C)C2=O)ccc1Oc1ccnc(-c2cnn(C)c2)c1 [Tartrate crystalline form I] | Clear solution |
| Cc1nc(NC(=O)N2CCC(C)(C)C2=O)ccc1Oc1ccnc(-c2cnn(C)c2)c1 [Malate crystalline form I] | Clear solution |
| Cc1nc(NC(=O)N2CCC(C)(C)C2=O)ccc1Oc1ccnc(-c2cnn(C)c2)c1 [Fumarate crystalline form I] | Clear solution |
| Cc1nc(NC(=O)N2CCC(C)(C)C2=O)ccc1Oc1ccnc(-c2cnn(C)c2)c1 [Citrate crystalline form I] | Clear solution |
